# normalized growth per entry
- MEASUREMENT NOTES: chemical genetic growth profiling, strain panel (AID 1159580);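 note: tested at 20 µM; growth read once vehicle control cultures reached saturation at 30 °C; 1 = growth at the plate median or of vehicle wells; lower values mean less growth of the strain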
- RUN PARAMETERS: S. cerevisiae deletion strains, growth OD, locus YDL040C, strain nat1, hits give low values
About 2,000 (36%) of roughly 5,500 compounds were called active. Not shown: some 18% with an inconclusive outcome. This is one part of the list.
Give your answer as a number; write no unit.

These solved cases illustrate the format of a correct answer.
STRUCTURE STRING | normalized growth
CC(=O)N[C@@H](CS)C(=O)O | 1.01
CC(C)[C@@H]1CC[C@@H](C)C[C@H]1O | 0.979

Read the next record carefully.
# input normalized growth for OCc1ccccc1O ?
# output 1.01

====

- MEASUREMENT NOTES: chemical genetic growth profiling, strain panel (AID 1159580)
- RUN PARAMETERS: S. cerevisiae deletion strains, growth OD, locus YNL067W, strain RPL9B, hits give low values
In all, about 5,500 compounds went through this assay and about 2,000 (36%) were called active. Inconclusive results (about 18%) are left out. The list shows a part of the results.
# normalized growth per entry

These solved cases illustrate the format of a correct answer.
MOLECULE | QUANTITY NAME | MEAS VALUE
C[C@@H]1C(=O)OC2[C@H](O)C34[C@@H]5OC(=O)[C@@]3(O[C@@H]3OC(=O)[C@H](O)[C@@]34[C@H](C(C)(C)C)[C@H]5O)[C@]21O (some centres undefined) | normalized growth | 0.995 (inactive)
CCC(C)(C)C(=O)O[C@H]1C[C@@H](C)C=C2C=C[C@H](C)[C@H](CC[C@@H]3C[C@@H](O)CC(=O)O3)[C@H]21 | normalized growth | 0.998 (inactive)
O=C1NC(=O)C(=O)C(=O)N1 | normalized growth | 1.01 (inactive)

# input normalized growth for O=C1[C@H](CCC(O)c2ccc(F)cc2)[C@@H](c2ccc(O)cc2)N1c1ccc(F)cc1 (some centres undefined) ?
# output 1 (inactive)

# input Now this one: COc1cc(-c2coc3cc(OCc4ccccc4)c(OC)c(O)c3c2=O)cc(OCc2ccccc2)c1OC
# output 0.984 (inactive)

# input Now this one: COc1c2ccoc2c(OC)c2oc(=O)ccc12
# output 0.999 (inactive)

# input Now this one: CCCNC1CCc2nc(N)sc2C1 (centres undefined)
# output 1.01 (inactive)

# input Now this one: CO/N=C(\C(=O)N[C@@H]1C(=O)N2C(C(=O)O)=C(CSc3nc(=O)c(O)nn3C)CS[C@H]12)c1csc(N)n1
# output 1.02 (inactive)

# input Now this one: CC[N+](CC)(CC)CCOc1cccc(OCC[N+](CC)(CC)CC)c1OCC[N+](CC)(CC)CC
# output 1.01 (inactive)

====

- MEASUREMENT NOTES: chemical genetic growth profiling, strain panel (AID 1159580)
- RUN PARAMETERS: S. cerevisiae deletion strains, growth OD, locus YNL233W, strain BNI4, hits give low values
Among all 5,500 compounds or so, about 2,000 (36%) were called active. Roughly 18% stayed inconclusive and do not appear here. This is one part of the list.
Doc: threshold 1 (exclusive). Items with normalized growth beneath it return satisfied; others return not satisfied.

Solved cases below.
STRUCTURE STRING | LABEL CLASS
COc1ccc([C@H]2Oc3cc(OC)cc(OC)c3C[C@H]2O)cc1 | not satisfied
Cc1ccc(Cl)c(Nc2ccccc2C(=O)O)c1Cl | satisfied

Attention now turns to another entry.
# input Record COc1ccc2c(c1)O[C@H]1c3ccc(OC)cc3OC[C@@H]21 : is its normalized growth strictly below 1?
# output satisfied

====

- MEASUREMENT NOTES: chemical genetic growth profiling, strain panel (AID 1159580)
- RUN PARAMETERS: S. cerevisiae deletion strains, growth OD, locus YDL074C, strain BRE1, hits give low values
Screen size: about 5,500 compounds; about 2,000 (36%) were called active. Roughly 18% stayed inconclusive and do not appear here. The list shows a part of the results.
QUANTITY NAME: normalized growth

These solved cases illustrate the format of a correct answer.
COMPOUND | QUANTITY NAME | MEAS VALUE
CCNC(=O)CC[C@H](N)C(=O)O | normalized growth | 1.02 (inactive)
CCC(C)(C)C(=O)O[C@H]1C[C@@H](C)C=C2C=C[C@H](C)[C@H](CC[C@@H]3C[C@@H](O)CC(=O)O3)[C@H]21 | normalized growth | 0.866 (inactive)

# input normalized growth for COc1cc2c(cc1OC)C1Cc3ccc(OC)c(OC)c3CN1CC2 (configuration not stated) ?
# output 0.989 (inactive)

# input Now this one: COc1ccc2c(c1OC)C(=O)OC2[C@H]1c2c(cc3c(c2OC)OCO3)CCN1C (some centres not stated)
# output 1.04 (inactive)

# input Now this one: NC(N)=NS(=O)(=O)c1ccc(N)cc1
# output 1.04 (inactive)

====

- MEASUREMENT NOTES: chemical genetic growth profiling, strain panel (AID 1159580)
- RUN PARAMETERS: S. cerevisiae deletion strains, growth OD, locus YOL012C, strain htz1
Screen size: about 5,500 compounds; about 2,000 (36%) were called active. About 18% were inconclusive and are not listed. Some of the results follow.
QUANTITY NAME: normalized growth
Give your answer as a number; write no unit.

These solved cases illustrate the format of a correct answer.
STRUCTURE STRING | normalized growth
COc1ccc2c(c1)CCC(c1ccccc1)=C2c1ccc(OCCN2CCCC2)cc1 | 0.17
Cc1cc(-c2ccccc2)nnc1NCCN1CCOCC1 | 0.852
COC(=O)C[C@H]1C(C)(C)C(=O)[C@@H]2CC3=C(CC[C@]4(C)C3=CC(=O)O[C@H]4c3ccoc3)[C@@]1(C)C2=O | 1.95

Read the next record carefully.
# input normalized growth for O=C(O)CN1C(=O)c2cccc3cccc(c23)C1=O ?
# output 0.878

====

# normalized growth per entry
- MEASUREMENT NOTES: chemical genetic growth profiling, strain panel (AID 1159580);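 note: tested at 20 µM; growth read once vehicle control cultures reached saturation at 30 °C; 1 = growth at the plate median or of vehicle wells; lower values mean less growth of the strain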
- RUN PARAMETERS: S. cerevisiae deletion strains, growth OD, locus YMR129W, hits give low values
Screen size: about 5,500 compounds; about 2,000 (36%) were called active. Roughly 18% stayed inconclusive and do not appear here. The list shows a part of the results.
Give your answer as a number; write no unit.

# input normalized growth for CC(=O)N[C@@H](CS)C(=O)O ?
# output 0.984

# input Now this one: C[C@@H]1C(=O)OC2[C@H](O)C34[C@@H]5OC(=O)[C@@]3(O[C@@H]3OC(=O)[C@H](O)[C@@]34[C@H](C(C)(C)C)[C@H]5O)[C@]21O (stereo not given in full)
# output 0.959

# input Now this one: NC(=O)c1cccc(N)c1
# output 1.01

# input Now this one: CC(=O)OCC[C@H](C)CCC=C(C)C
# output 0.985

# input Now this one: C=C1CCC2C(CC2(C)C)C(=C)CC/C1=N\O (stereo not given)
# output 1

====

- MEASUREMENT NOTES: chemical genetic growth profiling, strain panel (AID 1159580);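 note: tested at 20 µM; growth read once vehicle control cultures reached saturation at 30 °C; 1 = growth at the plate median or of vehicle wells; lower values mean less growth of the strain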
- RUN PARAMETERS: S. cerevisiae deletion strains, growth OD, locus YAL013W, strain DEP1
Hit rate of the full screen: of about 5,500 compounds, about 2,000 (36%) were called active. Another 18% or so got no clear call; they are omitted. Rule as the data show it: active = normalized growth mostly below about 0.91 (no sharp cut-off); inconclusive = no clear call, values can overlap the other calls; inactive = mostly above about 0.92. The list shows a part of the results.
Choose one outcome from this list and give only that: active, inactive

Solved cases below.
COMPOUND | LABEL CLASS
COC(=O)c1sccc1-c1ccc(C(C)=O)o1 | inactive
CC(=O)N[C@@H](CS)C(=O)O | inactive
OC(Cn1cncn1)(Cn1cncn1)c1ccc(F)cc1F | inactive
N[C@H](CO)C(=O)O | inactive
CC(C)NCC(O)COc1cccc2ccccc12 (configuration not stated) | inactive

# input Hello, I am checking results. What call was entered for N#C/C(=C\c1ccc(Oc2ccccc2)nc1)S(=O)(=O)c1ccccc1 ?
# output inactive

# input Now this one: C[N+]1(C)C2CC(OC(=O)C(CO)c3ccccc3)CC1C1OC12 (configuration not stated)
# output inactive

# input Now this one: O=C(Cn1ccnc1[N+](=O)[O-])NCCO
# output inactive

# input Now this one: CCCc1cnc(N2CCCN(C(=S)Nc3cccnc3)CC2)nc1
# output inactive

# input Now this one: CCCC(=O)O[C@]1(C(=O)CO)CCC2[C@@H]3CCC4=CC(=O)CC[C@]4(C)C3[C@@H](O)C[C@@]21C (some centres not stated)
# output inactive

====

- MEASUREMENT NOTES: chemical genetic growth profiling, strain panel (AID 1159580);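 note: tested at 20 µM; growth read once vehicle control cultures reached saturation at 30 °C; 1 = growth at the plate median or of vehicle wells; lower values mean less growth of the strain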
- RUN PARAMETERS: S. cerevisiae deletion strains, growth OD, locus YHR087W, strain rtc3, hits give low values
The whole screen tested about 5,500 compounds, of which about 2,000 (36%) were called active. Inconclusive results (about 18%) are left out. The list shows a part of the results.
QUANTITY NAME: normalized growth
Give your answer as a number; write no unit.

These solved cases illustrate the format of a correct answer.
STRUCTURE STRING | normalized growth
Cc1ccc(-n2cccc2)c(NC(=S)Nc2ccc(Br)cc2OC(F)(F)F)c1 | 1.02
O=C(c1ccc(-c2ccccc2)cc1)c1cc2cc([N+](=O)[O-])ccc2o1 | 1.01
COc1ccc(C(C)=O)cc1CSC(=NS(=O)(=O)c1ccccc1)Nc1cccc(F)c1 | 0.981

# input normalized growth for Cc1nc(-c2ccc(S(=O)(=O)N3CCN(c4ncnc5scc(-c6ccccc6)c45)CC3)s2)cs1 ?
# output 1.02

# input Now this one: O=C(c1ccccc1)c1cc2c(cc1Br)OCCO2
# output 0.989

# input Now this one: Nc1cc2c(cc1Cl)C(=O)NC2=O
# output 0.988

# input Now this one: COC(=O)c1sccc1NC(=O)C1CC1
# output 0.99

# input Now this one: c1ccc(-c2cc3c(ccc4nonc43)nn2)cc1
# output 0.971

# input Now this one: COC(=O)C1=C(C)NC(C)=C(C(=O)OC)C1c1ccc(-c2ccsc2C(=O)OC)o1
# output 0.985

# input Now this one: c1ccc(-c2cc3c(nn2)CCc2nonc2-3)cc1
# output 1.01

# input Now this one: COc1ccccc1N=C(N)SCc1ccccc1
# output 1.01

# input Now this one: Cc1ccc(NC(=S)NCCO)c(C)c1
# output 1.01
